assay-system: Free fatty acid receptor 1 (Mus musculus)
assay-explanation: Agonist activity at mouse GPR40 expressed in HEK293 cells assessed as increase in intracellular calcium level after 5 mins by FLUO-4-AM dye-based FLIPR assay
property: EC50 (µM)

[I] C[C@@H](Cc1ccc(-c2ccc3cnn(-c4ccccn4)c3c2)cc1)C(=O)O
[II] Cc1nn(-c2ccccn2)c2cc(-c3ccc(CCC(=O)O)cc3C#N)ccc12
Input: Please choose the item with the lower EC50 value from this pair: I and II Please indicate the selected item by its label.
Output: I
(I: 3.8 µM, II: 6.1 µM)

====

assay-system: Free fatty acid receptor 1 (Mus musculus, UniProt Q76JU9)
Sequence (Q76JU9 whole entry): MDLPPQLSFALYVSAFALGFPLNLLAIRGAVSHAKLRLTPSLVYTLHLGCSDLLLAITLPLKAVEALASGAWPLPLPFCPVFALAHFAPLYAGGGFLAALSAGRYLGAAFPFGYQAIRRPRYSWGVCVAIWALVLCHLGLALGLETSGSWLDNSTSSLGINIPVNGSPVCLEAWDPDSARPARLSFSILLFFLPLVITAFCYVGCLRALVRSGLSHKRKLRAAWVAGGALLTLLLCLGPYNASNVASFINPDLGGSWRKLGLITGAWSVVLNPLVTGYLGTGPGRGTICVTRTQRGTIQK
assay-explanation: Agonist activity at mouse GPR40 expressed in HEK293 cells assessed as increase in intracellular calcium level after 5 mins by FLUO-4-AM dye-based FLIPR assay
property: EC50 (nM)

Cc1nn(-c2ccccn2)c2cc(-c3ccc(CCC(=O)O)cc3Cl)ccc12
1200

[a] Cc1nn(-c2ccccn2)c2cc(-c3ccc(CCC(=O)O)cc3)ncc12
[b] Cc1nn(-c2ccccn2)c2cc(-c3ccc(CCC(=O)O)cc3F)ccc12
Input: // pick larger EC50 from pair: a vs b Please indicate the selected item by its label.
Output: a

====

assay-system: Free fatty acid receptor 4 (Homo sapiens) (UniProt Q5NUL3)
Sequence (Q5NUL3 whole entry): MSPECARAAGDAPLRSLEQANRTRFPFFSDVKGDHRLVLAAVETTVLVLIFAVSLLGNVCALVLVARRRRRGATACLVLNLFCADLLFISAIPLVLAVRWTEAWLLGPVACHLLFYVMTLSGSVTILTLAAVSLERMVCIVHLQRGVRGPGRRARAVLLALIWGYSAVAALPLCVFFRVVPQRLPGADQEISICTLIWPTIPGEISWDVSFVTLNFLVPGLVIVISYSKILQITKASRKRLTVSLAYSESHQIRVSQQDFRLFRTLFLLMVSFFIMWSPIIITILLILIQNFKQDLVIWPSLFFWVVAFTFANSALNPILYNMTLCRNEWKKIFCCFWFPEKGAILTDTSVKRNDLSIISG
assay-explanation: Agonist activity at human GPR120 expressed in CHO-FlpIn cells after 15 mins by DMR assay relative to control
Assay type: cell-based
property: Efficacy (%)

Cc1nn(-c2ccccn2)c2cc(-c3ccc(CC(C)(C)C(=O)O)cc3)ccc12
79
N#Cc1nn(-c2ccccn2)c2cc(-c3ccc(CCC(=O)O)cc3)ccc12
87
Cc1ccc(-n2nc(C)c3c(F)cc(-c4ccc([C@H]5C[C@@H]5C(=O)O)cc4)cc32)cc1
88
Cc1nn(-c2ccccn2)c2cc(-c3ccc(CCC(=O)O)cc3)ccc12
107
O=C(O)CCc1ccc(-c2ccc3cnn(-c4ccccn4)c3c2)cc1
114
COc1nn(-c2ccc(C)cc2)c2cc(-c3ccc([C@H]4C[C@@H]4C(=O)O)cc3)cc(F)c12
115
C[C@@H](Cc1ccc(-c2ccc3cnn(-c4ccccn4)c3c2)cc1)C(=O)O
100
